# assay target: CISD3 Gene Product (Miner2) (Homo sapiens, UniProt P0C7P0)
# Sequence (P0C7P0 15-127): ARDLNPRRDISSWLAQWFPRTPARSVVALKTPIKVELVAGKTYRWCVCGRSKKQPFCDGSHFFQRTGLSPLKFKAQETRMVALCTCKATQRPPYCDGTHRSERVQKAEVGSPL
# assay explanation: Stability of Fe-S cluster binding of purified NEET protein (absorbance 458 nm)
# Type: biochemical
# assay conditions: Miner2; pH 6, 37° C., 20 μM protein, 60 μM compound; run time 180 minutes; vehicle control 60
observable: Time (in minutes) to achieve 50% loss of bound cluster (Absorbance 458 nm)

>  <molecule>
O=C(Nc1scc(C2CC3CCC2C3)c1C(=O)O)c1ccccc1 (stereo not shown)

>  <measurement>
during 180 minutes

$$$$
>  <molecule>
O=C(Nc1sc(Cl)c(C2CCCC2)c1C(=O)O)c1ccccc1

>  <measurement>
during 180 minutes

$$$$
>  <molecule>
O=C(Nc1scc(-c2ccc(Cl)c(F)c2)c1C(=O)O)c1ccccc1

>  <measurement>
during 180 minutes

$$$$
>  <molecule>
Cc1ccccc1C(=O)Nc1scc(-c2ccccc2)c1C(=O)O

>  <measurement>
75 (60) minutes

$$$$
>  <molecule>
Cc1c(-c2ccccc2)sc(NC(=O)c2ccccc2)c1C(=O)O

>  <measurement>
70 (60) minutes

$$$$

Determine its reported Time (in minutes) to achieve 50% loss of bound cluster (Absorbance 458 nm): O=C(Nc1scc(-c2ccc(Cl)cc2)c1C(=O)O)c1ccccc1
85 (60) minutes

Determine its reported Time (in minutes) to achieve 50% loss of bound cluster (Absorbance 458 nm): O=C(Nc1scc(C2CCCCC2)c1C(=O)O)c1ccccc1
during 180 minutes

###

# assay target: CISD1 Gene Product (mitoNEET) (Homo sapiens)
# Sequence (Q9NZ45 33-108 limits assumed): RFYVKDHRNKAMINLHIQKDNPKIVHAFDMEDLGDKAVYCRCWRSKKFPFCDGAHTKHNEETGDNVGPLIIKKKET
# assay explanation: Stability of Fe-S cluster binding of purified NEET protein (absorbance 458 nm)
# Assay type: biochemical
# assay conditions: at 180 minutes, 60 μM compound, vehicle control 16%
# Protocol: The modulator effect on the NEET proteins encoded by human CISD1, CISD2, and CISD3 genes by the compounds of the invention has been tested and is reported below. Particularly, the biochemical function of the NEET proteins is measured by the stability of Fe—S cluster binding of the purified NEET proteins. The Fe—S cluster binding capacity of NEET proteins is known to be coordinated by four amino-acids in a stretch of 16 (three Cysteine and one Histidine). […]
observable: Residual cluster bound at end of experiment (Percentage Absorbance 458 nm at time zero)

// known answers, use as guide
>  <molecule>
Cc1c(-c2ccccc2)sc(NC(=O)c2ccccc2)c1C(=O)O

>  <assay target>
CISD1 Gene Product (mitoNEET) (Homo sapiens)

>  <measurement>
6% (16%)

$$$$
>  <molecule>
O=C(Nc1scc(-c2ccc(Cl)c(F)c2)c1C(=O)O)c1ccccc1

>  <assay target>
CISD1 Gene Product (mitoNEET) (Homo sapiens)

>  <measurement>
36% (16%)

$$$$
>  <molecule>
Cc1ccccc1C(=O)Nc1scc(-c2ccccc2)c1C(=O)O

>  <assay target>
CISD1 Gene Product (mitoNEET) (Homo sapiens)

>  <measurement>
24% (16%)

$$$$
>  <molecule>
O=C(Nc1scc(-c2ccc(Cl)cc2)c1C(=O)O)c1ccccc1

>  <assay target>
CISD1 Gene Product (mitoNEET) (Homo sapiens)

>  <measurement>
29% (16%)

$$$$
>  <molecule>
O=C(Nc1scc(C2CC3CCC2C3)c1C(=O)O)c1ccccc1 (stereo not shown)

>  <assay target>
CISD1 Gene Product (mitoNEET) (Homo sapiens)

>  <measurement>
20% (16%)

$$$$

Give Residual cluster bound at end of experiment (Percentage Absorbance 458 nm at time zero) for O=C(Nc1sc(Cl)c(C2CCCC2)c1C(=O)O)c1ccccc1 tested on CISD1 Gene Product (mitoNEET) (Homo sapiens).
52% (16%)

Give Residual cluster bound at end of experiment (Percentage Absorbance 458 nm at time zero) for O=C(Nc1scc(C2CCCCC2)c1C(=O)O)c1ccccc1 tested on CISD1 Gene Product (mitoNEET) (Homo sapiens).
36% (16%)
